Molecular target: Amine oxidase [flavin-containing] B (Homo sapiens)
Sequence (P27338 whole entry): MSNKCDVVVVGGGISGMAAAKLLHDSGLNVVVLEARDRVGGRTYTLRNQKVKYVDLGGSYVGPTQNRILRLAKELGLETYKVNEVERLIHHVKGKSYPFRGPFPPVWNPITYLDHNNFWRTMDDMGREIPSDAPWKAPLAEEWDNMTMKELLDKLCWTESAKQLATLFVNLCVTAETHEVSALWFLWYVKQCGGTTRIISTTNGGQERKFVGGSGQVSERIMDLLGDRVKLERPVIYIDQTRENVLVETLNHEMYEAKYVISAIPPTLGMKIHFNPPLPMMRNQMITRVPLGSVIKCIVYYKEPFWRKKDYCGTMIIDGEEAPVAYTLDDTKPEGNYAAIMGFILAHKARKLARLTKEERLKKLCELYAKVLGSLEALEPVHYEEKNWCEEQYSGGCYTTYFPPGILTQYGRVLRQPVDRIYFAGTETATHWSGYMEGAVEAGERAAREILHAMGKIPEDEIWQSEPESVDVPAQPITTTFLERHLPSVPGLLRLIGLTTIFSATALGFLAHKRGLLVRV
Assay: Inhibition of human MAO-B
Endpoint label: IC50

Worked set:
> print(dat)
                                   compound  endpoint.label  observed.measurement
1  C#CCNC1CCc2c(SCc3cccc(Br)c3)cccc21 (stereo not drawn)            IC50              > 100 µM
2  C#CCNC1CCc2c(SCc3cccc(OC)c3)cccc21 (stereo not drawn)            IC50               3.19 µM
3  C#CCNC1CCc2c(SCCc3ccc(C)cc3)cccc21 (stereo not drawn)            IC50               25.8 µM

Task: Fill in: IC50 of C#CCNC1CCc2c(SCc3ccc(Cl)cc3Cl)cccc21 (stereo not drawn) is ___
Result: 3.76 µM

Task: Which IC50 reading was recorded for the compound C#CCNC1CCc2c(SCc3ccc(OC)cc3)cccc21 (stereo not drawn) ?
Result: 1.9 µM

Task: Given the compound C#CCNC1CCc2c(SCc3ccc(Br)cc3)cccc21 (stereo not drawn) , what is its reported IC50?
Result: 1.31 µM

Task: # IC50 lookup, item C#CCNC1CCc2c(SCCc3ccc(F)c(F)c3)cccc21 (stereo not drawn)
Result: 3.24 µM

Task: Which IC50 reading was recorded for the compound C#CCNC1CCc2c(SCc3cccc(C)c3)cccc21 (stereo not drawn) ?
Result: > 100 µM

The measured values listed here are drawn from ChEMBL document CHEMBL4811259.
